Measured pIC50 of individual entries
TARGET SYSTEM: AXL (human catalytic domain) (Homo sapiens, UniProt P30530)
Construct: purchased Upstate Ltd. 14-512
Sequence (P30530 473-894): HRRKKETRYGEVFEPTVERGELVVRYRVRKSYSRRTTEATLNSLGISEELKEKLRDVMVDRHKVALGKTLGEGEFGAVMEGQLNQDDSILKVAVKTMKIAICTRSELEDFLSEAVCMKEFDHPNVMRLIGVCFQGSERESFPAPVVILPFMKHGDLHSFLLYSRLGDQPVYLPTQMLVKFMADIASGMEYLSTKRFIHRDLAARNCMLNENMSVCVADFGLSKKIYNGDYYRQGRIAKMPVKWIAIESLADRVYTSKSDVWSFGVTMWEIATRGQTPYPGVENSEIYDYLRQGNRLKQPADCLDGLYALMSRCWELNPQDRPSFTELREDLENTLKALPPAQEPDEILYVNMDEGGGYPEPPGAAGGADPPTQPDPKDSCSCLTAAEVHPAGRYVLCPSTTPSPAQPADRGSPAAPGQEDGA
ASSAY COMMENT: AXL (human catalytic domain) Enzyme Activity Assay (IMAP fluorescence polarisation)
Assay type: biochemical
CONDITIONS: further data set (WW-001 through WW-169, XX-001 through XX-469, YY-001 through YY-016, ZZ-001 through ZZ-003); 150 μM ATP
pIC50: −log10 of the molar value.

COMPOUND STRUCTURE | pIC50
ClCc1cccc(-c2cccc3nc(Nc4ccc(OCCN5CCCC5)cc4)nn23)c1 | 6.00 to 7.00
CN(C)CCNC(=O)c1ccc(Nc2nc3cccc(-c4ccc5c(c4)OCO5)n3n2)cc1 | 6.00 to 7.00
c1cc(-c2cn[nH]c2)cc(-c2cccc3nc(Nc4ccc(OCCN5CCCC5)cc4)nn23)c1 | ≥ 7.00
CCCNC(=O)Cn1cc(-c2cccc3nc(Nc4ccc(OCCN5CCCC5)cc4)nn23)cn1 | 6.00 to 7.00
O=C(CCN1CCCCC1)Nc1cccc(Nc2nc3cccc(-c4ccc5c(c4)OCCO5)n3n2)c1 | 6.00 to 7.00

----------
TARGET SYSTEM: AXL (human catalytic domain) (Homo sapiens, UniProt P30530)
Construct: purchased Upstate Ltd. 14-512
ASSAY COMMENT: AXL (human catalytic domain) Enzyme Activity Assay (IMAP fluorescence polarisation)
Format: biochemical
CONDITIONS: further data set (WW-001 through WW-169, XX-001 through XX-469, YY-001 through YY-016, ZZ-001 through ZZ-003); 150 μM ATP
Experimental: Biological Methods AXL (human catalytic domain) Enzyme Activity Assay Reagents Kinase Assay Reaction Buffer: This consisted of 20 mM HEPES pH 7.0, 10 mM MgCl2, 1 mM DTT, […], 0.01% Triton X100 (v/v), and 0.01% BSA (w/v). All buffer components were purchased from Sigma-Aldrich at reagent grade or higher. […] ATP: Supplied by Sigma (product code A-7699). […] Final ATP concentration in the assay was 150 μM; this concentration represents the KM.ATP for this enzyme calculated in this assay. […]
pIC50: −log10 of the molar value.

MOLECULE | pIC50
c1cc(-c2ccc3c(c2)OCCO3)n2nc(Nc3ccc(NCCCN4CCCCC4)cc3)nc2c1 | 6.00 to 7.00
O=C(Nc1nc2cccc(Nc3cccc(Cl)c3)n2n1)C1CC1 | 5.00 to 6.00
CCN(CC)CCOc1cc(Nc2nc3cccc(-c4cc5ccccc5o4)n3n2)ccn1 | 6.00 to 7.00
c1cc(NCC2CC2)cc(-c2cccc3nc(Nc4ccc(OCCN5CCCC5)cc4)nn23)c1 | 6.00 to 7.00
CS(=O)(=O)Nc1ccc(-c2cccc3nc(NC(=O)C4CC4)nn23)cc1 | 5.00 to 6.00
CN(CCN1CCCC1)c1ccc(Nc2nc3cccc(-c4ccc5c(c4)OCCO5)n3n2)cc1 | ≥ 7.00
COc1cccc(CNc2cccc(-c3cccc4nc(Nc5ccc(OCCN6CCCC6)cc5)nn34)c2)c1 | 6.00 to 7.00
CC(C)(C)CNc1cccc2nc(NC(=O)C3CC3)nn12 | 5.00 to 6.00
c1cc(-c2cnn(CC3CCCO3)c2)n2nc(Nc3ccc(OCCN4CCCC4)cc3)nc2c1 (stereo not drawn) | 6.00 to 7.00
